What Cell viability HL60 10 μM was measured for each of the following?
- Test system: HL-60
- protocol-details: Cytotoxicity (XTT) on HL-60 cells
- Assay type: cell-based, human
- measurement-context: 10 μM, 72 h
Provide the reading as a plain figure in % vs. control.

Prompt line: Give Cell viability HL60 10 μM for COC(=O)[C@H](Cc1ccccc1)NC(=O)CNC(=O)C(=O)[C@@H]1CCCN1C(=O)CNC(=O)c1ccnc2ccccc12
Response line: 114

Prompt line: Give recorded Cell viability HL60 10 μM. CC(C)NC(=O)CNC(=O)C(=O)[C@@H]1CCCN1C(=O)CNC(=O)c1ccnc2ccccc12
Response line: 86

Prompt line: Look up and state reported Cell viability HL60 10 μM for CN(C)C(=O)CNC(=O)C(=O)[C@@H]1CCCN1C(=O)CNC(=O)c1ccnc2ccccc12
Response line: 105

Prompt line: Indicate the recorded Cell viability HL60 10 μM value for this compound: O=C(NC1CC1)C(=O)[C@@H]1CCCN1C(=O)CNC(=O)c1ccnc2ccccc12
Response line: 110

Prompt line: Give reported Cell viability HL60 10 μM value for COC(=O)[C@H](CCCCNC(=O)OCc1ccccc1)NC(=O)CNC(=O)C(=O)[C@@H]1CCCN1C(=O)CNC(=O)c1ccnc2ccccc12
Response line: 104

Prompt line: Determine its reported Cell viability HL60 10 μM: O=C(NCC(=O)N1CCCC1)C(=O)[C@@H]1CCCN1C(=O)CNC(=O)c1ccnc2ccccc12
Response line: 111

Prompt line: Please list Cell viability HL60 10 μM recorded for the compound COC(=O)[C@H](CCC(N)=O)NC(=O)CNC(=O)C(=O)[C@@H]1CCCN1C(=O)CNC(=O)c1ccnc2ccccc12
Response line: 88

Prompt line: Tell us which Cell viability HL60 10 μM value is on record for CC(C)NC(=O)C(=O)[C@@H]1CCCN1C(=O)CNC(=O)c1ccnc2ccccc12
Response line: 111

Prompt line: Tell me Cell viability HL60 10 μM reported for CC(C)(C)OC(=O)CNC(=O)C(=O)[C@@H]1CCCN1C(=O)CNC(=O)c1ccnc2ccccc12
Response line: 104

Prompt line: Query Cell viability HL60 10 μM for O=C(NCc1ccccc1)C(=O)[C@@H]1CCCN1C(=O)CNC(=O)c1ccnc2ccccc12
Response line: 94

Prompt line: Let me know recorded Cell viability HL60 10 μM for COC(=O)[C@H](CCC(=O)OCc1ccccc1)NC(=O)CNC(=O)C(=O)[C@@H]1CCCN1C(=O)CNC(=O)c1ccnc2ccccc12 , thanks.
Response line: 109

Prompt line: Answer with the recorded Cell viability HL60 10 μM of COC(=O)c1ccc(NC(=O)C(=O)[C@@H]2CCCN2C(=O)CNC(=O)c2ccnc3ccccc23)cc1 only.
Response line: 100

Prompt line: Please indicate Cell viability HL60 10 μM recorded for COC(=O)CNC(=O)C(=O)[C@@H]1CCCN1C(=O)CNC(=O)c1ccnc2ccccc12
Response line: 112

Prompt line: Specify reported Cell viability HL60 10 μM for the compound shown: CCCCCNC(=O)C(=O)[C@@H]1CCCN1C(=O)CNC(=O)c1ccnc2ccccc12
Response line: 109

* * *

- Test system: Hela
- protocol-details: Cytotoxicity (XTT) on Hela cells
- Format: cell-based, human
- measurement-context: 10 μM, 72 h
measured-property: Cell viability HeLa S3 10 μM (% vs. control)
Number in % vs. control, nothing else.

Prompt line: Note down Cell viability HeLa S3 10 μM recorded for CC(C)NC(=O)CNC(=O)C(=O)[C@@H]1CCCN1C(=O)CNC(=O)c1ccnc2ccccc12 [Compound 5c]
Response line: 119

Prompt line: Identify measured Cell viability HeLa S3 10 μM associated with O=C(NCc1ccccc1)C(=O)[C@@H]1CCCN1C(=O)CNC(=O)c1ccnc2ccccc12 [Compound 3a]
Response line: 119

Prompt line: Check the records and state Cell viability HeLa S3 10 μM for CCCCCNC(=O)C(=O)[C@@H]1CCCN1C(=O)CNC(=O)c1ccnc2ccccc12 [Compound 3j]
Response line: 93

Prompt line: Note down Cell viability HeLa S3 10 μM recorded for COc1ccc(CCNC(=O)C(=O)[C@@H]2CCCN2C(=O)CNC(=O)c2ccnc3ccccc23)cc1OC [Compound 3e]
Response line: 104

Prompt line: Using known records, supply Cell viability HeLa S3 10 μM for COc1ccc(CNC(=O)C(=O)[C@@H]2CCCN2C(=O)CNC(=O)c2ccnc3ccccc23)cc1OC [Compound 3b]
Response line: 106

Prompt line: Specify reported Cell viability HeLa S3 10 μM for the compound shown: COc1ccc(NC(=O)C(=O)[C@@H]2CCCN2C(=O)CNC(=O)c2ccnc3ccccc23)cc1 [Compound 3f]
Response line: 103

Prompt line: Indicate its recorded Cell viability HeLa S3 10 μM; the compound in question is COC(=O)[C@H](CCC(=O)OCc1ccccc1)NC(=O)CNC(=O)C(=O)[C@@H]1CCCN1C(=O)CNC(=O)c1ccnc2ccccc12 [Compound 5h]
Response line: 116

Prompt line: Consider the compound COC(=O)[C@H](CC(C)C)NC(=O)CNC(=O)C(=O)[C@@H]1CCCN1C(=O)CNC(=O)c1ccnc2ccccc12 [Compound 5e] and give its recorded Cell viability HeLa S3 10 μM.
Response line: 99

Prompt line: Please give the documented Cell viability HeLa S3 10 μM of COC(=O)[C@H](Cc1ccccc1)NC(=O)CNC(=O)C(=O)[C@@H]1CCCN1C(=O)CNC(=O)c1ccnc2ccccc12 [Compound 5f]
Response line: 96

Prompt line: Let me know recorded Cell viability HeLa S3 10 μM for COC(=O)c1ccc(NC(=O)C(=O)[C@@H]2CCCN2C(=O)CNC(=O)c2ccnc3ccccc23)cc1 [Compound 3g] , thanks.
Response line: 98

Prompt line: Provide only the value of recorded Cell viability HeLa S3 10 μM for COC(=O)C(C)NC(=O)C(=O)[C@@H]1CCCN1C(=O)CNC(=O)c1ccnc2ccccc12 (mixture of isomers) [Compound 3m]
Response line: 108

Prompt line: For the compound O=C(NCC(=O)N1CCCC1)C(=O)[C@@H]1CCCN1C(=O)CNC(=O)c1ccnc2ccccc12 [Compound 5b] , report Cell viability HeLa S3 10 μM.
Response line: 93

Prompt line: Please report the measured Cell viability HeLa S3 10 μM for COC(=O)[C@H](CCCCNC(=O)OCc1ccccc1)NC(=O)CNC(=O)C(=O)[C@@H]1CCCN1C(=O)CNC(=O)c1ccnc2ccccc12 [Compound 5i]
Response line: 94
